Target: Casein kinase I isoform delta (Homo sapiens) (UniProt P48730)
Sequence (P48730 whole entry, looked up, canonical isoform): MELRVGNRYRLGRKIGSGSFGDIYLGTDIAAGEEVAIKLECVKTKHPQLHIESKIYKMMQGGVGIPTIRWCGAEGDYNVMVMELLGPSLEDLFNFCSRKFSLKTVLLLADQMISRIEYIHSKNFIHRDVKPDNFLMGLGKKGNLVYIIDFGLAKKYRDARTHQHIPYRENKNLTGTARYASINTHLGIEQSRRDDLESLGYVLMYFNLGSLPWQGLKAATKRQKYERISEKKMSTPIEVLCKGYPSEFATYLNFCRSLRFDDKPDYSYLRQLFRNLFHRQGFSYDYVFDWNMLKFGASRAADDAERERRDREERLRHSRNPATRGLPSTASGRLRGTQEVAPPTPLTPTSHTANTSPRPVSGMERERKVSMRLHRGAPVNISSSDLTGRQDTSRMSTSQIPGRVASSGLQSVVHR
Conditions: Compound concentration 20.0 uM
Description: Thermal Shift Assay. Domain: start/stop: M1-K294
Rule: measured ΔTm below -0.2 °C gets Condition met; anything equal to or greater than -0.2 °C gets Condition not met.

Q. Lab log: compare recorded ΔTm with -0.2 °C; is it strictly lower for CCN(CCN(C)C)C(=O)CNCc1cc(C(N)=O)ccn1 ?
A. Condition not met

---
Q. Lab log: compare recorded ΔTm with -0.2 °C; is it strictly lower for Cc1ccc2[nH]c(-n3nc(C)c(Cc4ccccc4)c3O)nc2c1 ?
A. Condition not met

Q. Lab log: compare recorded ΔTm with -0.2 °C; is it strictly lower for Cc1cccc(N/N=C(\C(=O)c2cccs2)C(=O)C(F)(F)F)c1 ?
A. Condition not met

Q. Lab log: compare recorded ΔTm with -0.2 °C; is it strictly lower for N[C@](CCCCB(O)O)(CCN1CCCCC1)C(=O)O ?
A. Condition not met

Q. Lab log: compare recorded ΔTm with -0.2 °C; is it strictly lower for O=C(O)CCNC(=S)NCCCC[C@H](NS(=O)(=O)c1cccc(F)c1)C(=O)N[C@@H](Cc1c[nH]c2ccccc12)C(=O)NC1CCC1 ?
A. Condition met

Q. Lab log: compare recorded ΔTm with -0.2 °C; is it strictly lower for CC(=O)O[C@]1(C(C)=O)CC[C@H]2[C@@H]3C=C(Cl)C4=CC(=O)[C@@H]5C[C@@H]5[C@]4(C)[C@H]3CC[C@@]21C ?
A. Condition not met
